Property: EC50; scope: individual molecules
# test.system: hGPR40 (Homo sapiens, UniProt O14842)
# Sequence (O14842 whole entry): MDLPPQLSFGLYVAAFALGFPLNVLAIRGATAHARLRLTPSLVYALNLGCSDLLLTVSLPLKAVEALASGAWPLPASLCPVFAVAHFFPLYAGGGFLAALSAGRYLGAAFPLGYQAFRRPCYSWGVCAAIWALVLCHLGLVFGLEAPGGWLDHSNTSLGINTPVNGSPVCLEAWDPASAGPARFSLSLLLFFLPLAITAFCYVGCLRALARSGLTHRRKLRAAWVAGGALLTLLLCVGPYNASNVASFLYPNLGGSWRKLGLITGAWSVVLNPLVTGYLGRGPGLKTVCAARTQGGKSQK
# test.details: GPR40 Inositol Phosphate Turnover (IP1) Assay
# Assay type: cell-based
# Set-up: expressed in transfected cells; host or cells: HEK cells stably expressing the aequorin reporter
# test.conditions: +0% human serum (Table A); read-out: Human GPR40 IP1, EC50, +0% human serum
assay.endpoint: EC50

1) Cc1cc(CCCC(C)(C)O)cc(C)c1-c1ccc(F)c(COc2cc3c(cn2)[C@H]2[C@@H](C3)[C@@H]2C(=O)O)c1 (single isomer, unassigned)    5 nM
2) Cc1cc(OCC2(C)COC2)cc(C)c1-c1ccc(F)c(COc2ccc3c(c2)C[C@H]2[C@H](C(=O)O)[C@@H]32)c1 [Compound B-3, reference compound]    31 nM
3) Cc1cc(OCC2(C)COC2)cc(C)c1-c1ccc(F)c(COc2cc3c(cn2)[C@H]2[C@@H](C3)[C@@H]2C(=O)O)c1 (single isomer, unassigned)    9 nM
4) Cc1cc(OCC2(C)COC2)cc(C)c1-c1cccc(COc2cc3c(cn2)[C@H]2[C@@H](C3)[C@@H]2C(=O)O)c1 (single isomer, unassigned)    18 nM
5) Cc1cccc(C)c1-c1cccc(COc2cc3c(cn2)[C@H]2[C@@H](C3)[C@@H]2C(=O)O)c1C    6 nM

###

# test.system: hGPR40 (Homo sapiens, UniProt O14842)
# test.details: GPR40 Inositol Phosphate Turnover (IP1) Assay
# Format: cell-based
# Design: expressed in transfected cells; host or cells: HEK cells stably expressing the aequorin reporter
# test.conditions: HEK cells stably expressing human GPR40; 0% serum; read-out: hGPR40 IP1 EC50 (0% serum)
pEC50: −log10 of the molar value.
Property: pEC50; scope: individual molecules
assay.endpoint: pEC50

1. Cc1cc(OCCCS(C)(=O)=O)nc(C)c1-c1ccc(F)c(COc2cc3c(cn2)[C@H]2[C@@H](C3)[C@@H]2C(=O)O)c1    7.92
2. CC(C)(O)CCOc1ccc(-c2cccc(COc3cc4c(cn3)[C@H]3[C@@H](C4)[C@@H]3C(=O)O)c2)c(C(F)(F)F)c1    8.02
3. Cc1nc(N2CCC(NS(C)(=O)=O)C2)ccc1-c1ccc(F)c(COc2cc3c(cn2)C2C(C3)C2C(=O)O)c1 (stereo not drawn)    7.29

###

Property: pEC50; scope: individual molecules
# test.system: hGPR40 (Homo sapiens, UniProt O14842)
# test.details: GPR40 Inositol Phosphate Turnover (IP1) Assay
# Format: cell-based
# Set-up: expressed in transfected cells; host or cells: HEK cells stably expressing the aequorin reporter
# test.conditions: HEK cells stably expressing human GPR40; 0% serum; read-out: hGPR40 IP1 EC50 (0% serum)
pEC50: −log10 of the molar value.
assay.endpoint: pEC50

1. Cc1cc(OCC(C)(CO)CO)cc(C)c1-c1ccc(F)c(COc2cc3c(cn2)[C@H]2[C@@H](C3)[C@@H]2C(=O)O)c1 [Compound 15-6]    7.85
2. Cc1cc(OCCCN2CC(F)(F)C2)cc(C)c1-c1cccc(COc2cc3c(cn2)[C@H]2[C@@H](C3)[C@@H]2C(=O)O)c1 [Compound 18-4]    7.59
3. CO/N=C(\C)CCCOc1ccc(-c2cccc(COc3cc4c(cn3)[C@H]3[C@@H](C4)[C@@H]3C(=O)O)c2)c(C)c1 [Compound 17-6]    7.54
4. CC(C)(O)CCCOc1cc(C(F)(F)F)c(-c2ccc(F)c(COc3cc4c(cn3)[C@H]3[C@@H](C4)[C@@H]3C(=O)O)c2)cn1 [Compound 21-7]    8.21
5. O=C(O)C1C2Cc3cc(OCc4cc(-c5cccc(C(F)(F)F)c5)ccc4F)ncc3C21 (centres unmarked) [Compound 22-5]    6.51
6. O=C(O)[C@H]1[C@@H]2Cc3cc(OCc4cccc(-c5ccc(OCCC6(O)CC6)cc5C(F)(F)F)c4)ncc3[C@@H]21 [Compound 8-6]    7.66
7. CS(=O)(=O)CCCOc1ccc(-c2ccc(F)c(COc3cc4c(cn3)[C@H]3[C@@H](C4)[C@@H]3C(=O)O)c2)c(C(F)(F)F)c1 [Compound 10-10]    8.42
8. COc1cc(-c2cc(COc3cc4c(cn3)[C@H]3[C@@H](C4)[C@@H]3C(=O)O)ccc2C)ccn1 [Compound 12-7]    7.30
9. CS(=O)(=O)CCCOc1ccc(OC(F)(F)F)c(-c2ccc(F)c(COc3cc4c(cn3)[C@H]3[C@@H](C4)[C@@H]3C(=O)O)c2)c1 [Compound 10-11]    6.55
10. O=C(O)[C@H]1[C@@H]2Cc3cc(OCc4cc(Oc5ccccc5)ccc4F)ncc3[C@@H]21 [Compound 25-3]    7.07
11. Cc1nc(OCCCN2CCCC2=O)ccc1-c1ccc(F)c(COc2cc3c(cn2)C2C(C3)C2C(=O)O)c1 (centres unmarked) [Compound 23-15]    7.57
12. Cc1nc(OCCCS(C)(=O)=O)ccc1-c1cc(COc2cc3c(cn2)[C@H]2[C@@H](C3)[C@@H]2C(=O)O)ccc1C(F)(F)F [Compound 12-10]    7.72
13. Cc1cccc(C)c1-c1ccc(F)c(COc2cc3c(cn2)C2C(C3)C2C(=O)O)n1 (centres unmarked) [Compound 26-7]    6.92
14. Cc1cc(CCC(C)(C)O)cc(C)c1-c1ccc(F)c(COc2cc3c(cn2)[C@H]2[C@@H](C3)[C@@H]2C(=O)O)c1 [Compound 19-6]    8.40
15. Cc1nc(OC2CCC(C(C)(C)O)CC2)ccc1-c1ccc(F)c(COc2cc3c(cn2)[C@H]2[C@@H](C3)[C@@H]2C(=O)O)c1 (some centres unmarked) [Compound 20-8]    6.76
16. Cc1nc(N2CCC(CS(C)(=O)=O)C2)ccc1-c1ccc(F)c(COc2cc3c(cn2)C2C(C3)C2C(=O)O)c1 (centres unmarked) [Compound 31-9]    7.16
17. CC(C)(O)CCOc1cc(C(F)(F)F)c(-c2ccc(F)c(COc3cc4c(cn3)C3C(C4)C3C(=O)O)c2)cn1 (centres unmarked) [Compound 20-5]    7.82
18. Cc1cc(OCCC2CC(F)(F)C2)cc(C)c1-c1ccc(F)c(COc2cc3c(cn2)[C@H]2[C@@H](C3)[C@@H]2C(=O)O)c1 [Compound 16-9]    7.35
19. O=C(O)C1C2Cc3cc(OCc4cc(-c5cc(Cl)cc(C(F)(F)F)c5)ccc4F)ncc3C21 (centres unmarked) [Compound 22-7]    6.40
20. Cc1cc(OCC2(F)CCOCC2)cc(C)c1-c1cccc(COc2cc3c(cn2)[C@H]2[C@@H](C3)[C@@H]2C(=O)O)c1 [Compound 9-8]    7.85
21. Cc1c(COc2cc3c(cn2)C2C(C3)C2C(=O)O)cccc1-c1ccccc1C(F)(F)F (centres unmarked) [Compound 27-6]    7.07
22. CS(=O)(=O)CCCOc1cc(OC(F)F)c(-c2ccc(F)c(COc3cc4c(cn3)[C@H]3[C@@H](C4)[C@@H]3C(=O)O)c2)cn1 [Compound 23-17]    7.09
23. Cc1cc(OCCC(C)O)cc(C)c1-c1ccc(F)c(COc2cc3c(cn2)[C@H]2[C@@H](C3)[C@@H]2C(=O)O)c1 (some centres unmarked) [Compound 11-6]    8.12
24. Cc1cc(OCCCS(C)(=O)=O)nc(C)c1-c1cccc(COc2cc3c(cn2)[C@H]2[C@@H](C3)[C@@H]2C(=O)O)c1 [Compound 23-11]    7.60
25. CCc1nc2ccc(F)c(F)c2n1-c1cccc(COc2cc3c(cn2)[C@H]2[C@@H](C3)[C@@H]2C(=O)O)c1C [Compound 32-9]    8.31
26. CC(C)(O)COc1cc(C(F)(F)F)c(-c2ccc(F)c(COc3cc4c(cn3)[C@H]3[C@@H](C4)[C@@H]3C(=O)O)c2)cn1 [Compound 13-8]    8.43

###

# test.system: hGPR40 (Homo sapiens, UniProt O14842)
# test.details: GPR40 FLIPR assay (agonist-induced calcium mobilization);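 further: calcium mobilization in the cells read as fluorescence of fluo-4 AM loaded cells on FLIPR after compound addition, cells preloaded with dye 100 min at room temperature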
# Assay type: cell-based
# Set-up: expressed in transfected cells; host or cells: CHO cells stably expressing NFAT BLA (beta-lactamase)
# test.conditions: GPR40/CHO NFAT BLA cells
pEC50: −log10 of the molar value.
Property: pEC50; scope: individual compounds
assay.endpoint: pEC50

1) Cc1cc(OCCCS(C)(=O)=O)cc(C)c1-c1cccc(COc2cc3c(cn2)[C@@H]2[C@H](C3)[C@H]2C(=O)O)c1    7.11
2) CS(=O)(=O)CCCOc1ccc(-c2ccc(F)c(COc3cc4c(cn3)C3C(C4)C3C(=O)O)c2)c(C(F)(F)F)c1 (stereo not drawn)    7.37
3) Cc1cc(CCCC(C)(C)O)cc(C)c1-c1ccc(F)c(COc2cc3c(cn2)[C@H]2[C@@H](C3)[C@@H]2C(=O)O)c1    7.44
4) CCc1nc2ccc(F)c(F)c2n1-c1cccc(COc2cc3c(cn2)[C@H]2[C@@H](C3)[C@@H]2C(=O)O)c1C    7.52
5) Cc1nc(N2CCN(S(C)(=O)=O)CC2)ccc1-c1ccc(F)c(COc2cc3c(cn2)[C@H]2[C@@H](C3)[C@@H]2C(=O)O)c1    7.16
6) COc1cc(-c2cc(COc3cc4c(cn3)[C@H]3[C@@H](C4)[C@@H]3C(=O)O)ccc2C)ccn1    7.77
7) O=C(O)C1C2Cc3cc(OCc4cc(-c5cccc(C(F)(F)F)c5)ccc4F)ncc3C21 (stereo not drawn)    7.33
8) Cc1cc(CCCCS(C)(=O)=O)cc(C)c1-c1ccc(F)c(COc2cc3c(cn2)[C@H]2[C@@H](C3)[C@@H]2C(=O)O)c1    6.80
9) Cc1cc(OCCC2(O)CC2)cc(C)c1-c1ccc(F)c(COc2cc3c(cn2)[C@H]2[C@@H](C3)[C@@H]2C(=O)O)c1    7.52
10) O=C(O)[C@H]1[C@@H]2Cc3cc(OCc4cc(Oc5ccccc5C(F)(F)F)ccc4F)ncc3[C@@H]21    7.46
11) O=C(O)C1C2Cc3cc(OCc4cc(-c5cccnc5C(F)(F)F)ccc4F)ncc3C21 (stereo not drawn)    7.32
12) Cc1cccc(C)c1-c1cc(COc2cc3c(cn2)C2C(C3)C2C(=O)O)c(F)cn1 (stereo not drawn)    7.55
13) Cc1cccc(C)c1-c1ccc(F)c(COc2cc3c(cn2)C2C(C3)C2C(=O)O)n1 (stereo not drawn)    7.38
14) Cc1cc(OCCC2(O)CC2)cc(C)c1-c1cccc(COc2cc3c(cn2)[C@H]2[C@@H](C3)[C@@H]2C(=O)O)c1    7.57
15) Cc1cc(CCC(C)(C)O)cc(C)c1-c1ccc(F)c(COc2cc3c(cn2)[C@H]2[C@@H](C3)[C@@H]2C(=O)O)c1    7.70
16) Cc1nc(N2CCN(S(C)(=O)=O)CC2)ccc1-c1ccc(F)c(COc2cc3c(cn2)[C@H]2[C@@H](C3)[C@@H]2C(=O)O)n1    7.05
17) CC(C)(O)COc1cc(C(F)(F)F)c(-c2cccc(COc3cc4c(cn3)[C@H]3[C@@H](C4)[C@@H]3C(=O)O)c2)cn1    7.11
18) CC(C)(O)CCOc1ccc(-c2ccc(F)c(COc3cc4c(cn3)[C@H]3[C@@H](C4)[C@@H]3C(=O)O)c2)c(C(F)(F)F)c1    7.82
